Tested on: Saccharomyces cerevisiae;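 further: PSI is a weighted mean of sequencing reads over stability bins, variants kept only with over 10 reads, mCherry proximal and sfGFP distal, peptide attached via GGGS linker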
PROTOCOL TEXT: protein stability index of tFT-peptide fusion (C-terminal peptide) (PSI (0-1 scale)); higher = more stable (slower turnover)
ASSAY SETUP: genetic background: das1 deletion; temperature: 37 C
RESULT TYPE: protein stability index
Respond numerically, and do not add a unit to the figure.

For this sequence ( "PFPTPPPIPRSP" ), measured protein stability index is 0.729

For this sequence ( "FCGWLGVYLVKG" ), measured protein stability index is 0.656

For this sequence ( "CCSRFLMLRILV" ), measured protein stability index is 0.438

For this sequence ( "NDSSWEVSLMVG" ), measured protein stability index is 0.748

For this sequence ( "VSISLCVLCPVF" ), measured protein stability index is 0.356

For this sequence ( "EVGFHRRWVALS" ), measured protein stability index is 0.737

For this sequence ( "PCPAPRPPSPSA" ), measured protein stability index is 0.715

For this sequence ( "FVIVSSCIGYAL" ), measured protein stability index is 0.584

For this sequence ( "GRWVLALCLVCG" ), measured protein stability index is 0.312

For this sequence ( "LPLPPPGSPPPL" ), measured protein stability index is 0.726

For this sequence ( "VDSTCLLITLLA" ), measured protein stability index is 0.506

For this sequence ( "WDLYFSVVYRVV" ), measured protein stability index is 0.491

For this sequence ( "WISVRIFISCFF" ), measured protein stability index is 0.318

For this sequence ( "SLRKRILCRFEY" ), measured protein stability index is 0.735

For this sequence ( "WVRLGRSWTTVG" ), measured protein stability index is 0.754

For this sequence ( "WCFGSLLIRFSL" ), measured protein stability index is 0.555

For this sequence ( "LCFRLVSYLCIN" ), measured protein stability index is 0.678

For this sequence ( "VFLPVMVFFTFS" ), measured protein stability index is 0.496

For this sequence ( "GVMSICRWMISV" ), measured protein stability index is 0.491

For this sequence ( "FSVSYFRLVRLC" ), measured protein stability index is 0.602

For this sequence ( "LDLSSVFILYFN" ), measured protein stability index is 0.709

For this sequence ( "FRLFSLWFCWVR" ), measured protein stability index is 0.297

For this sequence ( "CFLLVSLGILCW" ), measured protein stability index is 0.121

For this sequence ( "LRFVCALGYCVW" ), measured protein stability index is 0.601

For this sequence ( "LSCFCLFCLSFC" ), measured protein stability index is 0.663

For this sequence ( "TEVGAWLLLCRC" ), measured protein stability index is 0.403

For this sequence ( "TGPVFVSFRLLH" ), measured protein stability index is 0.737

For this sequence ( "LCIYNFGWWFCV" ), measured protein stability index is 0.639

For this sequence ( "IMGGLRHRIEVY" ), measured protein stability index is 0.477

For this sequence ( "HVPPVFQASLSP" ), measured protein stability index is 0.743

For this sequence ( "WLCLAVLVRFPC" ), measured protein stability index is 0.399

For this sequence ( "VFIVVEFRLSLY" ), measured protein stability index is 0.302

For this sequence ( "FLFSVVFFFFSL" ), measured protein stability index is 0.515

For this sequence ( "FILATGKGRWVV" ), measured protein stability index is 0.743

For this sequence ( "VEQLLYIKATNV" ), measured protein stability index is 0.729

For this sequence ( "FVLLSVCFFGCL" ), measured protein stability index is 0.495

For this sequence ( "YVIGLLFVVSGV" ), measured protein stability index is 0.465

For this sequence ( "RSIAFLLGQFLS" ), measured protein stability index is 0.743

For this sequence ( "RFLFYSFPIHTL" ), measured protein stability index is 0.67

For this sequence ( "KKKEIIKIIKIN" ), measured protein stability index is 0.72

For this sequence ( "FGFFLFIFFFFR" ), measured protein stability index is 0.429

Each recorded value in this set is attributed to the supplement of paper PMC10724198.
